TARGET UNDER TEST: holoenzyme CK2α2β2 (Homo sapiens)
Construct: made in house; host or cells: E. coli BL21(DE3)
Sequence (P68400 whole entry): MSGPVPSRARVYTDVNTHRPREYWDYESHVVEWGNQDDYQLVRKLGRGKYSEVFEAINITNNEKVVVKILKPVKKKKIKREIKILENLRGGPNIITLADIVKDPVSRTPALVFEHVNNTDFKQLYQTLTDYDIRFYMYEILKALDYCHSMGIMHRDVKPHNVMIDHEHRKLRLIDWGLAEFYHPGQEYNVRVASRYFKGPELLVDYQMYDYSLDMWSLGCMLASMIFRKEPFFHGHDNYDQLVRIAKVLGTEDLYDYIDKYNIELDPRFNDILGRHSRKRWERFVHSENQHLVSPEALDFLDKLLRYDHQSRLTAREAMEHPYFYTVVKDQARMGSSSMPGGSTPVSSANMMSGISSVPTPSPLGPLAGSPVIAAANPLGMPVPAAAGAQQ
TEST SUMMARY: Capillary electrophoresis (CE) assay, enzyme inhibition of the holoenzyme
Format: biochemical
MEASUREMENT PARAMETERS: read-out: Inhibition (%) of CK2α2β2
READOUT NAME: inhibition at 10 µM (%)
Use % as the unit, but write only the number.

{"COMPOUND": "COc1cc([C@@H]2c3c([nH]c4ccccc34)[C@H](C(=O)N3C(=O)OC[C@H]3Cc3ccccc3)[C@@H]3C(=O)OC(=O)[C@H]23)cc(OC)c1OC [(−)‐3 a]", "UNIT TAG": "%", "RECORDED MEASUREMENT": 89}
{"COMPOUND": "COc1cc([C@H]2c3c([nH]c4ccccc34)[C@H](C(=O)N3C(=O)OC[C@@H]3Cc3ccccc3)[C@H]3C(=O)OC(=O)[C@@H]23)cc(OC)c1OC [(+)‐3 c]", "UNIT TAG": "%", "RECORDED MEASUREMENT": 66}
{"COMPOUND": "COc1cc([C@@H]2c3c([nH]c4ccccc34)[C@@H](C(=O)N3C(=O)OC[C@@H]3Cc3ccccc3)[C@@H]3C(=O)OC(=O)[C@H]23)cc(OC)c1OC [(+)‐3 d]", "UNIT TAG": "%", "RECORDED MEASUREMENT": 92}

Field: next compound
Incoming: Provide the documented inhibition at 10 µM with holoenzyme CK2α2β2 (Homo sapiens) as the system for COc1cc([C@H]2c3c([nH]c4ccccc34)[C@@H](C(=O)N3C(=O)OC[C@@H]3Cc3ccccc3)[C@H]3C(=O)OC(=O)[C@@H]23)cc(OC)c1OC [(+)‐3 a]
Outgoing: 84
